- measurement_notes: NCI Yeast Anticancer Drug Screen. Data for the mlh1 rad18 strain (AID 175)
- setup_conditions: S. cerevisiae mlh1 rad18 strain growth inhibition; at 50.0 µM; active compounds read high
The panel holds about 79,000 compounds, 15% with a hit somewhere; the sample as a whole holds those more often. Calls of active or inactive are those of the source. No stated cut-off is given here; in the data, active means growth inhibition above about 70%; inactive means the rest.
Measured growth inhibition, listed per entry.

Worked cases, answers included:
In: I have this compound here, O=C(O)c1ccccc1CC(C(=O)O)C(=O)O , and I need its recorded growth inhibition.
Out: 6.15% (inactive)

In: Note, next up: CCCCCCCCCCCCCCCC/C=C\CCCCCCCCCCCCCCCCC
Out: -13.1% (inactive)

Continuing:
In: GET /values?readout=growth inhibition&item= CO[C@@H]1[C@@H](OC2OC(C)C(OC3CC(C)(O)C(OC(=O)CC(C)C)C(C)O3)C(N(C)C)C2O)[C@@H](CC=O)C[C@@H](C)C(=O)/C=C/C2O[C@H]2C[C@@H](C)OC(=O)C[C@H]1OC(C)=O (stereo not given in full)
Out: 17.3% (inactive)

In: Now consider CC(=O)OCC(OC(C)=O)C(OC(C)=O)C(C=NN(C(C)=O)S(=O)(=O)c1ccc(/C=C2\NC(=O)NC2=O)cc1)OC(C)=O (stereo not given) .
Out: -7.15% (inactive)

In: And Nc1cccc(CC(N)C(=O)O)c1 (stereo not given) ?
Out: 1.7% (inactive)

---

- measurement_notes: NCI Yeast Anticancer Drug Screen. Data for the cln2 rad14 strain (AID 165);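 further: 0% = growth equal to vehicle treated cultures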
- setup_conditions: S. cerevisiae cln2 rad14 strain, at 50.0 µM
Compounds without any hit were thinned out: in the full panel of roughly 79,000, 15% have a hit. Calls of active or inactive are those of the source. Cut-off read from the data, not from the text of the source: active = growth inhibition above about 70%; inactive = the rest.
Parameter call: string, one of active, inactive

Example results:
In: Hi, sorry to bother you, what did the test record for CCCCCCCCCCCC(=O)CCCCCCCCCCC ?
Out: inactive

In: Continue with N#CC1C2C1C1C=CC2n2c(=O)n(-c3ccccc3)c(=O)n21 (configuration not stated)
Out: inactive

In: What about this compound? Cc1nc2ccccc2o1
Out: inactive

In: // query: CCOC1=NC(C)C(C)N1 (configuration not stated)
Out: inactive

In: Field entry: BrCCC1CCCCCC1
Out: inactive

***
In: Field: outcome | Entry: COC(=O)Nc1c2ccccc2c(NC(=O)OC)c2ccccc12
Out: inactive

In: Thanks! And O=c1nnc(O)c2ccn(O)cc1-2 ?
Out: inactive

In: Follow-up entry: CC1=C(CCC(C)CO)O[C@H]2C[C@H]3[C@@H]4CC[C@H]5C[C@@H](O)CC[C@]5(C)[C@H]4CC(=O)[C@]3(C)[C@@H]12 (some centres not stated)
Out: inactive

In: How about O=c1sc2ccccc2n1CCN(CCn1c(=O)sc2ccccc21)c1ccccc1 ?
Out: inactive

In: Proceed to NS(=O)(=O)c1ccc(NC(=O)c2cccc3c(=O)c4ccccc4[nH]c23)cc1
Out: inactive

---

- measurement_notes: NCI Yeast Anticancer Drug Screen. Data for the mlh1 rad18 strain (AID 175)
- setup_conditions: S. cerevisiae mlh1 rad18 strain growth inhibition; at 50.0 µM; active compounds read high
- Experimental: Growth inhibition of yeast strains with defined genetic alterations is measured as a screen for potential anti-cancer activity. Selected strains with alterations in DNA damage repair or cell cycle control were exposed to compounds and growth inhibition was measured relative to vehicle treated controls. The strain used in this assay is mlh1 rad18
Compounds without any hit were thinned out: in the full panel of roughly 79,000, 15% have a hit.
measure_name: growth inhibition (%)
API: value field is a number in %; no unit string.

In: Which measured growth inhibition value corresponds to CC1(C)OC2COC3(COC(C)(C)O3)C(O)C2O1 (centres undefined) ?
Out: -24.8

In: Try this molecule next: Nc1ncc(Cl)cn1
Out: -23.6

In: Next molecule up: COc1cc(C2SC(N)=Nc3c2c(C)nn3C(=O)c2ccc(Cl)cc2)ccc1O (centres undefined)
Out: -10.2

In: Try this molecule too: O=C(OCC1OCOC(COC(=O)c2ccccc2)C(OC(=O)c2ccccc2)C1OC(=O)c1ccccc1)c1ccccc1 (centres undefined)
Out: 19.6

In: What do you get for Cn1c2c(c(=O)c3c4[nH]c5c(c(=O)c4ccc31)CCCC5)CCCC2 ?
Out: 3.6

Next molecule, please.
In: Item under review: C#CCN(N=O)C(=O)NC(CCCCNC(=O)OCc1ccccc1)C(=O)OCc1ccccc1 (centres undefined) . Reported growth inhibition?
Out: 0.6
